- MEASUREMENT_TARGET: ALS enzyme extracted from Mutant 8 (heterozygous)
- ASSAY_NOTES: ALS enzyme assay, heterozygous Mutant 8
- CONDITION_NOTES: ALS of heterozygous Mutant 8; read-out: ID50% (the source's name)
METRIC: IC50 (µM)
Field format: number, assumed µM, no unit text.

Solved cases below.
Prompt: In one line, give reported IC50 of the entry `COc1nc(C)nc(NC(=O)NS(=O)(=O)c2ccccc2Cl)n1` .
Response: 0.075

Prompt: Given `COc1cc(Cl)nc(NC(=O)NS(=O)(=O)c2ccccc2C(=O)O)n1` , respond with its IC50.
Response: 0.01

Prompt: Write down IC50 measured for item `COC(=O)c1sccc1S(=O)(=O)NC(=O)Nc1nc(C)nc(OC)n1`
Response: 0.04

Further cases:
Prompt: Please give measured IC50 of the following entry: CC(C)C1(C)N=C(c2nc3ccccc3cc2C(=O)O)NC1=O (stereo not drawn)
Response: 150

---

- System: ALS enzyme extracted from Mutant 10 (heterozygous)
- ASSAY_NOTES: ALS enzyme assay, heterozygous Mutant 10
- Format: biochemical, Zea mays
- CONDITION_NOTES: Mutant 10; groups Strong, Intermediate, Weak, Zero
METRIC: resistance group, Enzyme Assay

Here is how some compounds turned out for resistance group, Enzyme Assay.
Prompt: Please look at this compound and report its resistance group, Enzyme Assay: `COc1cc(Cl)nc(NC(=O)NS(=O)(=O)c2ccccc2C(=O)O)n1`
Response: Intermediate

Prompt: Identify measured resistance group, Enzyme Assay associated with `COc1nc(C)nc(NC(=O)NS(=O)(=O)c2ccccc2Cl)n1`
Response: Weak

Prompt: // fetch resistance group, Enzyme Assay given entry `COC(=O)c1sccc1S(=O)(=O)NC(=O)Nc1nc(C)nc(OC)n1`
Response: Intermediate

Prompt: Supply recorded resistance group, Enzyme Assay for CCc1cnc(C2=NC(=O)C(C)(C(C)C)N2)c(C(=O)O)c1 (stereo not drawn) here.
Response: Intermediate

Pending compound:
Prompt: Tell us which resistance group, Enzyme Assay value is on record for CC(C)C1(C)N=C(c2nc3ccccc3cc2C(=O)O)NC1=O (stereo not drawn)
Response: Weak

---

- Test system: ALS enzyme extracted from Mutant 3 (heterozygous)
- ASSAY_NOTES: ALS enzyme assay, heterozygous Mutant 3
- Type: biochemical, Zea mays
- CONDITION_NOTES: fold increase in resistance vs wild type, heterozygous Mutant 3; 30 min
METRIC: Fold Increase
Reply with just the number.

Prompt: Item `COc1nc(C)nc(NC(=O)NS(=O)(=O)c2ccccc2Cl)n1` : provide Fold Increase
Response: 2

Next:
Prompt: Identify measured Fold Increase corresponding to CC(C)C1(C)N=C(c2nc3ccccc3cc2C(=O)O)NC1=O (stereo not drawn)
Response: 2

Prompt: Please look at this molecule and report its Fold Increase: `COc1cc(Cl)nc(NC(=O)NS(=O)(=O)c2ccccc2C(=O)O)n1`
Response: 4

Prompt: Determine from records and report Fold Increase for `COC(=O)c1sccc1S(=O)(=O)NC(=O)Nc1nc(C)nc(OC)n1`
Response: 2

Prompt: Identify measured Fold Increase associated with CC(C)C1(C)N=C(c2ncccc2C(=O)O)NC1=O (stereo not drawn)
Response: 1

Prompt: Please list Fold Increase recorded for the molecule CCc1cnc(C2=NC(=O)C(C)(C(C)C)N2)c(C(=O)O)c1 (stereo not drawn)
Response: 2

---

Recorded pIC50, one value per entry.
- MEASUREMENT_TARGET: ALS (acetolactate synthase), Wild type
- ASSAY_NOTES: ALS enzyme assay, wild-type control
- Assay type: biochemical, Zea mays
- CONDITION_NOTES: read-out: ID50% (the source's name)
As a rule, pIC50 stands for the negative log10 of the concentration, concentration in M.

Below, each entry is followed by its recorded pIC50 result.
Prompt: Determine its reported pIC50: `COc1cc(Cl)nc(NC(=O)NS(=O)(=O)c2ccccc2C(=O)O)n1`
Response: 8.43

Prompt: Name the recorded pIC50 of the item `COc1nc(C)nc(NC(=O)NS(=O)(=O)c2ccccc2Cl)n1` in your answer.
Response: 7.73

Continuing:
Prompt: Entry `COC(=O)c1sccc1S(=O)(=O)NC(=O)Nc1nc(C)nc(OC)n1` needs its pIC50 filled in; supply it.
Response: 7.37

---

- MEASUREMENT_TARGET: ALS enzyme extracted from Mutant 7 (heterozygous)
- ASSAY_NOTES: ALS enzyme assay, heterozygous Mutant 7
- CONDITION_NOTES: ALS of heterozygous Mutant 7; read-out: ID50% (the source's name)
METRIC: IC50 (nM)
Entry rule: numbers only, all in nM.

// solved cases for IC50 follow
Prompt: For the molecule `COC(=O)c1sccc1S(=O)(=O)NC(=O)Nc1nc(C)nc(OC)n1` , give its reported IC50.
Response: 25

Prompt: Answer with the recorded IC50 of `COc1cc(Cl)nc(NC(=O)NS(=O)(=O)c2ccccc2C(=O)O)n1` only.
Response: 5

Prompt: Retrieve IC50 measured for CCc1cnc(C2=NC(=O)C(C)(C(C)C)N2)c(C(=O)O)c1 (stereo not drawn) and print it.
Response: 4000

Prompt: Tell us which IC50 value is on record for CC(C)C1(C)N=C(c2ncccc2C(=O)O)NC1=O (stereo not drawn)
Response: 10000

Prompt: Provide IC50 value for the following molecule: `COc1nc(C)nc(NC(=O)NS(=O)(=O)c2ccccc2Cl)n1`
Response: 8

Let's switch to this molecule now.
Prompt: Tell me IC50 reported for CC(C)C1(C)N=C(c2nc3ccccc3cc2C(=O)O)NC1=O (stereo not drawn)
Response: 1000

---

Listed compounds paired with reported pIC50
- MEASUREMENT_TARGET: ALS enzyme extracted from Mutant 9 (heterozygous)
- ASSAY_NOTES: ALS enzyme assay, heterozygous Mutant 9
- Type: biochemical, Zea mays
- CONDITION_NOTES: ALS of heterozygous Mutant 9; read-out: ID50% (the source's name)
Remember the convention: pIC50 equals -log10 of concentration in molar.

Study these solved cases before continuing.
Prompt: Indicate its recorded pIC50; the compound in question is CC(C)C1(C)N=C(c2nc3ccccc3cc2C(=O)O)NC1=O (centres unmarked) [Imazaquin, imazaquin]
Response: 4.30

Prompt: Give recorded pIC50. CCc1cnc(C2=NC(=O)C(C)(C(C)C)N2)c(C(=O)O)c1 (centres unmarked) [Imazethapyr]
Response: 3.37

Prompt: Please supply the value of reported pIC50 for the item COc1nc(C)nc(NC(=O)NS(=O)(=O)c2ccccc2Cl)n1 [Chlorsulfuron, chlorsulfuron]
Response: 7.30

Alright, here's another compound for you.
Prompt: Fill in reported pIC50 for this entry: COC(=O)c1sccc1S(=O)(=O)NC(=O)Nc1nc(C)nc(OC)n1 [Thiacarburon, thiacarburon]
Response: 7.35

---

- MEASUREMENT_TARGET: ALS enzyme extracted from Mutant 3 (heterozygous)
- ASSAY_NOTES: ALS enzyme assay, heterozygous Mutant 3
- CONDITION_NOTES: ALS of heterozygous Mutant 3; read-out: ID50% (the source's name)
Reported IC50 values follow for various compounds
Lab book: enter the figure in nM, no units written.

These recorded examples may help you get a feel for the data.
Prompt: Report the value of IC50 obtained on ALS enzyme extracted from Mutant 3 (heterozygous) for COC(=O)c1sccc1S(=O)(=O)NC(=O)Nc1nc(C)nc(OC)n1 [Thiacarburon, thiacarburon] .
Response: 85

Prompt: Give ALS enzyme extracted from Mutant 3 (heterozygous) IC50 for the following compound: COc1nc(C)nc(NC(=O)NS(=O)(=O)c2ccccc2Cl)n1 [Chlorsulfuron, chlorsulfuron]
Response: 35

Prompt: Please respond with reported IC50 (system ALS enzyme extracted from Mutant 3 (heterozygous)) for COc1cc(Cl)nc(NC(=O)NS(=O)(=O)c2ccccc2C(=O)O)n1 [Chlorimuron, chlorimuron] .
Response: 15

Prompt: State recorded IC50 with ALS enzyme extracted from Mutant 3 (heterozygous), entry CC(C)C1(C)N=C(c2nc3ccccc3cc2C(=O)O)NC1=O (stereo not drawn) [Imazaquin, imazaquin] , no comment.
Response: 1500

Prompt: Consider the compound CCc1cnc(C2=NC(=O)C(C)(C(C)C)N2)c(C(=O)O)c1 (stereo not drawn) [Imazethapyr] tested on ALS enzyme extracted from Mutant 3 (heterozygous); state its IC50.
Response: 2500

Next item in the queue.
Prompt: Give measured IC50 for CC(C)C1(C)N=C(c2ncccc2C(=O)O)NC1=O (stereo not drawn) [Imazapyr, imazapyr] (ALS enzyme extracted from Mutant 3 (heterozygous)).
Response: 4000

---

- MEASUREMENT_TARGET: ALS enzyme extracted from Mutant 10 (heterozygous)
- ASSAY_NOTES: ALS enzyme assay, heterozygous Mutant 10
- CONDITION_NOTES: ALS of heterozygous Mutant 10; read-out: ID50% (the source's name)
METRIC: pIC50
Remember the convention: pIC50 equals -log10 of concentration in molar.

Prompt: Supply reported pIC50 belonging to this compound: COc1cc(Cl)nc(NC(=O)NS(=O)(=O)c2ccccc2C(=O)O)n1 [Chlorimuron, chlorimuron]
Response: 7.77

Others:
Prompt: Consider the compound CC(C)C1(C)N=C(c2nc3ccccc3cc2C(=O)O)NC1=O (stereo not shown) [Imazaquin, imazaquin] . State its measured pIC50.
Response: 5.15

Prompt: Supply reported pIC50 belonging to this compound: CC(C)C1(C)N=C(c2ncccc2C(=O)O)NC1=O (stereo not shown) [Imazapyr, imazapyr]
Response: 4.46

Prompt: Given COc1nc(C)nc(NC(=O)NS(=O)(=O)c2ccccc2Cl)n1 [Chlorsulfuron, chlorsulfuron] , respond with its pIC50.
Response: 7.46
